Ref: the supplement of paper PMC10126150

Test system: ATP;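 note: ATP exposure 15 min at 22 °C before imaging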
RUN DESCRIPTION: switch fluorescence ratio, 500 uM ATP over buffer (Cy3 cluster intensity, sum of 5 cycles each) (fold (ratio)); higher = stronger signal-on switching upon ATP binding; sequences stand for … in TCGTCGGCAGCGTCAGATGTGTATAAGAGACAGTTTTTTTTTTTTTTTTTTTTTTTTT…TC
RECORDED CONDITIONS: aptamer strand: ATP DNA aptamer (quencher-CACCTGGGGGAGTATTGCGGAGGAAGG + anchor), 100 nM annealed; ATP concentration: 500 uM
MEASURED PARAMETER: switch fluorescence ratio
// keep it numeric: no unit symbol after the value

| SEQUENCE CONTENT | switch fluorescence ratio |
| --- | --- |
| TTGGGGTCCG | 0.977 |

Task: Lab note: record switch fluorescence ratio of GTAGCGGGAG tested on ATP.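 Note: ATP exposure 15 min at 22 °C before imaging.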
Result: 1.06

Task: Report its switch fluorescence ratio with ATP as the test system: TAAGGAGCGG
Result: 0.976

Task: State switch fluorescence ratio (ATP) of TGAAGTATAG .
Result: 0.99

Task: Quote switch fluorescence ratio with test system ATP for ATATATCTAG;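 note: ATP exposure 15 min at 22 °C before imaging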
Result: 0.998

Task: Write down measured switch fluorescence ratio (ATP) for this sequence. TGGGTGCCGT
Result: 1.04

* * *

Test system: ATP;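 note: ATP exposure 15 min at 22 °C before imaging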
RUN DESCRIPTION: switch fluorescence ratio, 500 uM ATP over buffer (Cy3 cluster intensity, sum of 5 cycles each) (fold (ratio)); higher = stronger signal-on switching upon ATP binding; sequences stand for … in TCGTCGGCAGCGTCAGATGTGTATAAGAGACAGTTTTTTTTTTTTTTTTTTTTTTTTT…TC
RECORDED CONDITIONS: aptamer strand: ATP DNA aptamer (quencher-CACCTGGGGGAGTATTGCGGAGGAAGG + anchor), 100 nM annealed; ATP concentration: 500 uM
switch fluorescence ratio overview
Please state the value as a number alone, without comment.

Examples with answers:
| SEQUENCE CONTENT | MEASURED PARAMETER | VALUE REPORTED |
| --- | --- | --- |
| AGACGGGATT | switch fluorescence ratio | 1.03 |
| AGTTACTGGG | switch fluorescence ratio | 1.06 |
| AAGGGGGTCA | switch fluorescence ratio | 1.02 |
| AATGCGTTTT | switch fluorescence ratio | 1.04 |
| CAGAAATTAG | switch fluorescence ratio | 1 |

Task: Indicate the recorded switch fluorescence ratio value for this sequence: GCTGGGAGGT
Result: 0.984

Task: Please indicate switch fluorescence ratio recorded for GAAGTGCATT
Result: 0.98

* * *

Item-by-item account of switch fluorescence ratio
Test system: ATP;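 note: ATP exposure 15 min at 22 °C before imaging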
RUN DESCRIPTION: switch fluorescence ratio, 500 uM ATP over buffer (Cy3 cluster intensity, sum of 5 cycles each) (fold (ratio)); higher = stronger signal-on switching upon ATP binding; sequences stand for … in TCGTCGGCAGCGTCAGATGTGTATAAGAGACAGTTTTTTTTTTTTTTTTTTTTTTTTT…TC
RECORDED CONDITIONS: aptamer strand: ATP DNA aptamer (quencher-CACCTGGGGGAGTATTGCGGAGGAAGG + anchor), 100 nM annealed; ATP concentration: 500 uM
Keep the answer to the number alone.

# count of solved cases: 5
| SEQUENCE CONTENT | switch fluorescence ratio |
| --- | --- |
| AGTTGAGCAA | 1.29 |
| CTTTGATTGG | 0.99 |
| GTTAAAAGGC | 0.986 |
| GAGATCGGTG | 0.96 |
| TGAAAGGAAT | 1.13 |

Task: Identify measured switch fluorescence ratio associated with GGGGGTCCAG
Result: 0.997

Task: Find the measured switch fluorescence ratio of AAAGGGAGAT and report it.
Result: 1.03

Task: In one line, give reported switch fluorescence ratio of the entry ATTGGAACGC .
Result: 1.03

Task: Consider the sequence GGTATGGGAT . State its measured switch fluorescence ratio.
Result: 1.02

* * *

Test system: ATP;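 note: ATP exposure 15 min at 22 °C before imaging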
RUN DESCRIPTION: switch fluorescence ratio, 500 uM ATP over buffer (Cy3 cluster intensity, sum of 5 cycles each) (fold (ratio)); higher = stronger signal-on switching upon ATP binding; sequences stand for … in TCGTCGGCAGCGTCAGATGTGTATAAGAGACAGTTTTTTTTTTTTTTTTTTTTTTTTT…TC
RECORDED CONDITIONS: aptamer strand: ATP DNA aptamer (quencher-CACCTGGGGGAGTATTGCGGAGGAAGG + anchor), 100 nM annealed; ATP concentration: 500 uM
Each entry below carries its reported switch fluorescence ratio.
Could you keep your reply to the number by itself?

Solved cases below.
| SEQUENCE CONTENT | MEASUREMENT TARGET | switch fluorescence ratio |
| --- | --- | --- |
| AAGAGAGGGG | ATP | 1.02 |
| TAGCGGTTGG | ATP | 1.02 |
| ATACGCCGGT | ATP | 1.01 |

Task: For the sequence GGGCCGGGGG , report switch fluorescence ratio.
Result: 1

Task: Hello, please tell me recorded switch fluorescence ratio for this one: CATGGGGGCG
Result: 1.01

Task: Give the value of switch fluorescence ratio reported for the following: GCGTGCATCC
Result: 1.03

Task: Item ATGGCGGGTT : provide switch fluorescence ratio
Result: 1

Task: Provide measured switch fluorescence ratio value, entry: TTTATGCCAT
Result: 0.989

Task: Provide measured switch fluorescence ratio value, entry: GGTTCGGTTC
Result: 1.02

Task: Read off the recorded switch fluorescence ratio for CGGATTAGAG
Result: 0.964

Task: Annotate the sequence CAAATGTCAA with its measured switch fluorescence ratio.
Result: 0.987

Task: Query switch fluorescence ratio for CTAGTGAGTT
Result: 0.999

Task: Given TTGGTATATA , respond with its switch fluorescence ratio.
Result: 0.988

* * *

Readings of switch fluorescence ratio for the listed sequences
Tested on: ATP;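 note: ATP exposure 15 min at 22 °C before imaging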
RUN DESCRIPTION: switch fluorescence ratio, 500 uM ATP over buffer (Cy3 cluster intensity, sum of 5 cycles each) (fold (ratio)); higher = stronger signal-on switching upon ATP binding; sequences stand for … in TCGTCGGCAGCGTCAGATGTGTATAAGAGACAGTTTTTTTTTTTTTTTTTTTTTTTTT…TC
RECORDED CONDITIONS: aptamer strand: ATP DNA aptamer (quencher-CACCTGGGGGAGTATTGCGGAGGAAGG + anchor), 100 nM annealed; ATP concentration: 500 uM
Reply: number alone, nothing else.

| SEQUENCE CONTENT | VALUE REPORTED |
| --- | --- |
| CTTGGGATTT | 0.98 |
| CGATGGATGG | 1.01 |
| TTTAGTAGTT | 1.01 |
| AATTATATCA | 1.01 |
| TGGGTTGTTA | 0.985 |

Task: Entry GGTATCGGTA needs its switch fluorescence ratio filled in; supply it.
Result: 1.01

Task: Dear colleague, please send me the reported switch fluorescence ratio for GAAAGTTTTG when you can.
Result: 1.01

Task: Answer with reported switch fluorescence ratio of TGCCTAAAGT
Result: 0.976

Task: State its switch fluorescence ratio: CGTATAGTTT
Result: 0.987

Task: # return recorded switch fluorescence ratio for entry GGTCTACTAG
Result: 0.999

* * *

Test system: ATP;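 note: ATP exposure 15 min at 22 °C before imaging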
RUN DESCRIPTION: switch fluorescence ratio, 500 uM ATP over buffer (Cy3 cluster intensity, sum of 5 cycles each) (fold (ratio)); higher = stronger signal-on switching upon ATP binding; sequences stand for … in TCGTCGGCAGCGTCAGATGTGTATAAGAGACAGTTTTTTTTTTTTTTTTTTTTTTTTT…TC
RECORDED CONDITIONS: aptamer strand: ATP DNA aptamer (quencher-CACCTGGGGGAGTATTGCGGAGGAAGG + anchor), 100 nM annealed; ATP concentration: 500 uM
MEASURED PARAMETER: switch fluorescence ratio
// return a plain number; no unit text

| SEQUENCE CONTENT | MEASUREMENT TARGET | MEASURED PARAMETER | VALUE REPORTED |
| --- | --- | --- | --- |
| TTTTAAGTCG | ATP | switch fluorescence ratio | 1.05 |
| GAAGAAAGCG | ATP | switch fluorescence ratio | 1.01 |
| GTGATCAGTG | ATP | switch fluorescence ratio | 0.987 |
| TAACAATCGC | ATP | switch fluorescence ratio | 1.06 |
| GTCGGCGGGG | ATP | switch fluorescence ratio | 0.98 |

Task: Find the measured switch fluorescence ratio of TAAGAGGCGG and report it.
Result: 1.01

* * *

This section presents sequences with their documented switch fluorescence ratio values.
System: ATP;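 note: ATP exposure 15 min at 22 °C before imaging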
RUN DESCRIPTION: switch fluorescence ratio, 500 uM ATP over buffer (Cy3 cluster intensity, sum of 5 cycles each) (fold (ratio)); higher = stronger signal-on switching upon ATP binding; sequences stand for … in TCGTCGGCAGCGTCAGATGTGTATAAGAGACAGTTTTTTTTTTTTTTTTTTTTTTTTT…TC
RECORDED CONDITIONS: aptamer strand: ATP DNA aptamer (quencher-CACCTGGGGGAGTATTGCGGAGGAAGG + anchor), 100 nM annealed; ATP concentration: 500 uM
// no unit string in output, number only

Past entries and their recorded results:
| SEQUENCE CONTENT | switch fluorescence ratio |
| --- | --- |
| GAGGTGCAGG | 0.993 |
| GGATAGAGTA | 1.01 |
| CGCTTCATTA | 1.01 |
| GTTTACTATA | 1.06 |
| CAATGGGTAG | 0.999 |
| ATGTGGTTAG | 0.994 |
| GAAAAAGGTG | 1.1 |
| ATTTCTGGGT | 0.988 |
| AGCGGTGTGC | 0.974 |
| GGTGCGGGTG | 1.03 |

Consider the additional sequence presented here.
Task: Determine from records and report switch fluorescence ratio for GGAGGAAGTA
Result: 1.03
